This section presents molecules with their documented Rice plant response rating values.
Tested on: rice
Test: Test B flood test rice
Format: in vivo, Oryza sativa
Condition Label: Rate 250 g/ha; Pre-emergence (flood test species); scale 0 to 10, 0 is no effect, 10 is complete control
Property Name: Rice plant response rating

1. CCCCn1c(=O)on(C(=O)N(c2ccccc2)C(C)C)c1=O [Compound 556]; 0
2. CC(C)N(C(=O)n1oc(=O)n(C(C)C2CCC2)c1=O)c1ccc(F)cc1F (centres unmarked) [Compound 702]; 0
3. CCOP(=O)(OCC)C(C)n1c(=O)on(C(=O)N(c2ccccc2)C(C)C)c1=O (centres unmarked) [Compound 448]; 0
4. CC(C)N(C(=O)n1oc(=O)n(CC2=NOCCO2)c1=O)c1ccc(F)cc1 [Compound 765]; 0
5. CC(C)N(C(=O)n1oc(=O)n(CCCC#N)c1=O)c1ccc(F)cc1F [Compound 675]; 0

====

System: blackgrass
Test: Test B pre/postemergence blackgrass
Type: in vivo, Alopecurus myosuroides
Condition Label: Preemergence, Rate 500 g/ha; scale 0 to 10, 0 is no effect, 10 is complete control
Property Name: Blackgrass plant response rating

1. CC(C)N(C(=O)n1oc(=O)n(C(CF)CF)c1=O)c1ccccc1; 10
2. Cc1nc(Cl)sc1C(C)n1c(=O)on(C(=O)N(c2ccccc2)C(C)C)c1=O (stereo not drawn); 0
3. CC(C)N(C(=O)n1oc(=O)n(COCC[Si](C)(C)C)c1=O)c1ccc(Cl)cc1; 2
4. CC(C)N(C(=O)n1oc(=O)n(CCC(F)(F)F)c1=O)c1ccc(F)cc1; 10
5. Cc1nc(Cl)sc1C(C)n1c(=O)on(C(=O)N(c2ccc(F)cc2F)C(C)C)c1=O (stereo not drawn); 0
6. C=C(C)CCn1c(=O)on(C(=O)N(c2ccccc2)C(C)C)c1=O; 0

====

Test system: blackgrass
Test: Test B pre/postemergence blackgrass
Format: in vivo, Alopecurus myosuroides
Condition Label: Rate 62 g/ha, Postemergence; scale 0 to 10, 0 no effect, 10 complete control
This section presents compounds with their documented Blackgrass plant response rating values.
Property Name: Blackgrass plant response rating

1. CC(C)N(C(=O)n1oc(=O)n(C2CC2)c1=O)c1ccc(F)cc1F; 7
2. CC[Si](C)(C)Cn1c(=O)on(C(=O)N(c2ccc(F)cc2)C(C)C)c1=O; 0
3. COCC(C)N(C(=O)n1oc(=O)n(-c2ccccc2C)c1=O)c1ccc(F)cc1 (stereo not drawn); 0
4. CCC=CCn1c(=O)on(C(=O)N(c2ccc(F)cc2)C(C)C)c1=O; 0
5. CC(=O)OCn1c(=O)on(C(=O)N(c2ccc(F)cc2)C(C)C)c1=O; 0
6. CC(C)N(C(=O)n1oc(=O)n(COCC[Si](C)(C)C)c1=O)c1ccc(Cl)cc1; 0

====

System: velvetleaf
Test: Test A velvetleaf
Type: in vivo, Abutilon theophrasti
Condition Label: Postemergence, Rate 1000 g/ha; 0 to 10 scale where 0 is no effect and 10 is complete control
Property Name: Plant response rating, Velvetleaf

1. CC(C)N(C(=O)n1oc(=O)n(C2CCCC(C(F)(F)F)C2)c1=O)c1ccc(F)cc1 (stereo not shown) [Compound 184]; 2
2. CCN(C(=O)n1oc(=O)n(N(C)c2ccccc2)c1=O)C1CCCCC1 [Compound 183]; 0
3. Cc1ccccc1-n1c(=O)on(C(=O)N(c2cc(OC(C)C)c(Cl)cc2Cl)C(C)C)c1=O [Compound 42]; 0
4. CC(C)N(C(=O)n1oc(=O)[nH]c1=O)c1ccccc1 [Compound 386]; 0
